- procedure-details: protein stability index of a GFP-peptide fusion (yeast GPS) (PSI 1-4); higher = more stable; sorted into four equal gates, so the index is relative within each strain
- test-parameters: san1∆
quantity-name: protein stability index

{"sequence-string": "MVNTQQPIVTGTSVISM [PRE4]", "protein stability index": 1.95}
{"sequence-string": "RPPNGIKNFKSLLLSSS [SSN2]", "protein stability index": 1.83}
{"sequence-string": "IFLAERRILPKPSRTSR [RPS7A]", "protein stability index": 2.8}
{"sequence-string": "IGAGVPSLEVASEYIET [FAS1]", "protein stability index": 2.18}
{"sequence-string": "CAEGIFVVKLDTVDRLI [GAL11]", "protein stability index": 3.02}

input: Name the reported protein stability index value associated with the sequence EAVELPLVQADLYEQIG [RPT3]
output: 3.39

input: Again, but for NASDALKGRVVEVCLAD [RPS1B]
output: 3.12

====

Recorded measurements of protein stability index, one per entry
- procedure-details: protein stability index of a GFP-peptide fusion (yeast GPS) (PSI 1-4); higher = more stable; sorted into four equal gates, so the index is relative within each strain
- test-parameters: ubr1∆
Answer with the value's number alone.

Known results for sequences:
{"sequence-string": "PQRLTVLRLATNKGPLA [MCD1]", "protein stability index": 2.42}
{"sequence-string": "PQPLFMEDPPSTVSGEL [YMR153W/NUP53]", "protein stability index": 3.12}
{"sequence-string": "NIIESIANFSRAGKYEL [YJR042W/NUP85]", "protein stability index": 2.44}

input: Which measured protein stability index value corresponds to VFYQVTPEDADEEEDDE [RPL22B] ?
output: 1.99

input: Also, EELRGQQTEHETEIKDL [SMC4] please.
output: 3.37

====

protein stability index listing for selected sequences.
- procedure-details: protein stability index of a GFP-peptide fusion (yeast GPS) (PSI 1-4); higher = more stable; sorted into four equal gates, so the index is relative within each strain
- test-parameters: doa10∆
Would you mind answering with just the numeric figure?

Please review the entries below; each comes with its answer.
{"sequence-string": "SKRSKIDIINKLILHAI [YML103C/NUP188]", "protein stability index": 1.23}
{"sequence-string": "FVCRGMAATQTIEQSPR [ECM29]", "protein stability index": 1.7}
{"sequence-string": "NVHGSLEPFLLMLEDTD [BRR2]", "protein stability index": 2.47}
{"sequence-string": "KENGQLIGAATKFKGGK [SEC65]", "protein stability index": 1.7}

input: Reported protein stability index for FYKNKYSSKPYKVDNMT [RPN2] : what is it?
output: 2.44

input: For IQRTRERKKSIGSQRGR [DSN1] then?
output: 2.94

====

- procedure-details: protein stability index of a GFP-peptide fusion (yeast GPS) (PSI 1-4); higher = more stable; sorted into four equal gates, so the index is relative within each strain
- test-parameters: doa10∆
Classify on protein stability index using lo = under 2, med = from 2 up to 3, hi = 3 and over

{"sequence-string": "IMWQLLDGVSYLHQNWV [SSN3]", "category": "lo"}
{"sequence-string": "KLLIQIDELSNGQRSNS [SMC1]", "category": "med"}
{"sequence-string": "FPVSLSQPSKKSFANHT [SIR4]", "category": "med"}
{"sequence-string": "EEIPINSSEQESDYEPN [SIR3]", "category": "med"}
{"sequence-string": "LDCDGGFIDASCIAVMA [RRP45]", "category": "lo"}

input: Class (by measured protein stability index) for RQCFQDNCCDFKVRTNL [MED1]
output: hi

input: Would you kindly repeat that for HCITSITLALADAGIEL [MTR3] ?
output: lo

input: Now this one: SPVQIAFNRFMAESLVD [SSN8]
output: lo

input: Same question, IKELRSKGYPIQFLTIG [FAS1] this time
output: lo

input: How about QYQLLYNLKNDILTNLE [SWI1] ?
output: lo

input: And then FTNGVLAVTNLLIISCI [YML031W/NDC1] , what is it?
output: lo

input: How about this sequence: GKLISNLSSTPMETLLS [YML031W/NDC1]
output: med

input: What about NHVMPLKPVDKLKPMNI [SIN4] ?
output: med

input: // same read-out, input: HYDNTTRNSLGNVIQFI [RPO21]
output: med

input: And for SSLEARYFFYLSKINAI [RPN3] ?
output: lo

input: Query YSENGKHDSLRYRLLSD [RPN1] next
output: med

input: Repeat with ANANANATANATANATA [SNF11]
output: hi

input: Also need RRWNKLCTLNDSKGSLY [YGL100W/SEH1] , thanks.
output: hi

input: Now consider KFNKSKAKFTSLAVRSL [YCS4] .
output: med

input: Again, but for QFYVKRWKRFTIGAIFL [CDC53]
output: med

input: How about EQKWLIYDKKDHKYVCT [SRB8] ?
output: med

input: # iterate: DEEMTISQKLHDSILHS [RRP43]
output: med

input: Can you check LPDELTLSYDDISAAIV [DLS1] next?
output: med

input: How about this sequence: CAINSKSRGSDLQYLGE [RRP6]
output: hi

input: Try the sequence LSKVAALSGNEGDASPF [RPB2]
output: lo

input: Now try SDIESANNQEYDLNFKL [SMC1] .
output: hi

input: Now try EDAKYVINLKQIAKFVV [RPT1] .
output: lo

input: Another sequence to look at: RRMAFKPFGSAKSDETK [YLR335W/NUP2]
output: med
